Target System: Tlp4 (Campylobacter jejuni)
Sequence (Q0PBP3 entry or part of it): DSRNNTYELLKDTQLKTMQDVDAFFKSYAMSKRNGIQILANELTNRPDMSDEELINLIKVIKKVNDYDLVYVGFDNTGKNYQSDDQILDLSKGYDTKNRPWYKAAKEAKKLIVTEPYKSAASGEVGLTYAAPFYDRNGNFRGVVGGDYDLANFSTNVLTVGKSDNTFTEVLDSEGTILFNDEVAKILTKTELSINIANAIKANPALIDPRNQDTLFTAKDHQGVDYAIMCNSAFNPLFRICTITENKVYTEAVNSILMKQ
Assay Protocol: biochemical
Assay type: binding
Experimental Setup: read-out: Tlp4 Affinity
Measured Metric: Kd

# Record Smiles, Measured Metric, Value Measured
measured = [
    ("N=C(N)NCCC[C@H](N)C(=O)O", "Kd", "> 200 µM"),
    ("Cc1ncc(C[n+]2csc(CCO)c2C)c(N)n1", "Kd", "> 200 µM"),
]

###

Each entry below lists one item and its recorded Kd value.
Target System: Tlp3^LBD D196A (Campylobacter jejuni, UniProt Q0P864, D196A)
Sequence (Q0P864 41-290 D196A): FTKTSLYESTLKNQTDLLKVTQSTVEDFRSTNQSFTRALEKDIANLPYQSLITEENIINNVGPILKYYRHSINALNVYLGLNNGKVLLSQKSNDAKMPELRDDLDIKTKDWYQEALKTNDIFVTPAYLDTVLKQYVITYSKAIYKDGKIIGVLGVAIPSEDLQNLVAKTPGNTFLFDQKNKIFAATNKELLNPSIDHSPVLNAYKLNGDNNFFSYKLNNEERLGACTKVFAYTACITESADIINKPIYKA
Assay Protocol: biochemical

# Compound, Units Symbol, Kd
measured = [
    ("NCCCC[C@H](N)C(=O)O", "µM", 16.1),
    ("C[C@H](O)[C@@H](O)[C@@H](O)[C@H](O)C=O", "µM", 41.9),
    ("CC(=O)N[C@H]1[C@H]([C@H](O)[C@H](O)CO)OC(O)(C(=O)O)C[C@@H]1O (stereo partly drawn)", "µM", 36.8),
    ("N[C@H]1C(O)O[C@H](CO)[C@@H](O)[C@@H]1O (stereo partly drawn)", "µM", 45.5),
    ("c1ncc2nc[nH]c2n1", "µM", 35.8),
    ("Cc1ncc(C[n+]2csc(CCO)c2C)c(N)n1", "µM", 36.8),
]
